Hello, the source for this data is ChEMBL document CHEMBL3817732, in case you need it.

Test: Non-competitive inhibition of rat recombinant C-terminal His-tagged calpain-2 expressed in Escherichia coli BL21(DE3) using (EDANS)-EPLFAERK-(DABCYL) as substrate assessed as enzyme/inhibitor complex in presence of CaCl2 by Michaelis-Menten plot analysis
observation_type: pKi
In plain terms, pKi is the concentration in mol/L turned into minus its base-10 logarithm.

Task: What does the record list as pKi for CC(C)C[C@@H](NC(=O)C/N=C1\N[C@@H](C)[C@@H](C(=O)NC(C)(C)C)N2CCC[C@H]12)C(=O)N[C@H](CCCN)C(=O)O ?
Result: 3.81

---

Molecular target: Procathepsin L (Homo sapiens) (UniProt P07711)
Sequence (P07711 114-333 limits assumed): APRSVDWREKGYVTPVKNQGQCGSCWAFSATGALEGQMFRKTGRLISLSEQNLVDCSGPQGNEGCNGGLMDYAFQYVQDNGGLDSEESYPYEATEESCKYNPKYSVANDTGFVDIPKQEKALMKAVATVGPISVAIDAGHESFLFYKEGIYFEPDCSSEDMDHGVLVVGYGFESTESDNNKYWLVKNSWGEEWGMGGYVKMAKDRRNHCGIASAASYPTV
Assay: Inhibition of human liver cathepsin L assessed as cleavage of Z-FR-AMC at 100 uM by fluorescence spectrometer
observation_type: inhibition

Worked examples follow.
{"sample_smiles": "CC(C)C[C@H](/N=C1\\N[C@@H](C)[C@@H](C(=O)NC(C)(C)C)N2CCC[C@H]12)C(=O)N[C@@H](CCCCN)C(=O)NCC(=O)O", "system": "Procathepsin L (Homo sapiens) (UniProt P07711)", "inhibition": "> 85%"}
{"sample_smiles": "CC(C)[C@H](NC(=O)C/N=C1\\N[C@@H](C)[C@@H](C(=O)NC(C)(C)C)N2CCC[C@H]12)C(=O)N[C@H](CCCN)C(=O)O", "system": "Procathepsin L (Homo sapiens) (UniProt P07711)", "inhibition": "17%"}
{"sample_smiles": "C[C@@H]1NC(=O)[C@H](CCCN)NC(=O)CNC(=O)[C@H](CO)NC(=O)CNC(=O)[C@@H]2CCCN2[C@@H]1C(=O)NC(C)(C)C", "system": "Procathepsin L (Homo sapiens) (UniProt P07711)", "inhibition": "> 85%"}

Task: Hi! What's the reported inhibition for CC(C)C[C@@H](NC(=O)C/N=C1\N[C@@H](C)[C@@H](C(=O)NC(C)(C)C)N2CCC[C@H]12)C(=O)N[C@H](CCCN)C(=O)O on Procathepsin L (Homo sapiens) (UniProt P07711)?
Result: > 32%

Task: Hi! What's the reported inhibition for CC(C)C[C@@H]1NC(=O)[C@H](C)NC(=O)CNC(=O)[C@@H]2CCCN2[C@H](C(=O)NC(C)(C)C)[C@H](C)NC(=O)[C@H](CCCCN)NC1=O on Procathepsin L (Homo sapiens) (UniProt P07711)?
Result: > 85%

---

Assay: Mixed-type inhibition of rat recombinant C-terminal His-tagged calpain-2 expressed in Escherichia coli BL21(DE3) using (EDANS)-EPLFAERK-(DABCYL) as substrate assessed as enzyme/inhibitor complex in presence of CaCl2 by Michaelis-Menten plot analysis
observation_type: Ki (µM)
Hi! Could you send only the number? It should be in µM, unit omitted.

Task: What does the record list as Ki for C[C@@H]1NC(=O)[C@H](CCCN)NC(=O)CNC(=O)[C@H](CO)NC(=O)CNC(=O)[C@@H]2CCCN2[C@@H]1C(=O)NC(C)(C)C ?
Result: 20.3

---

Assay: Competitive inhibition of rat recombinant C-terminal His-tagged calpain-2 expressed in Escherichia coli BL21(DE3) using (EDANS)-EPLFAERK-(DABCYL) as substrate assessed as enzyme/inhibitor complex in presence of CaCl2 by Michaelis-Menten plot analysis
observation_type: pKi
In plain terms, pKi is the concentration in mol/L turned into minus its base-10 logarithm.

{"sample_smiles": "CC(C)C[C@@H]1NC(=O)[C@H](C)NC(=O)CNC(=O)[C@@H]2CCCN2[C@H](C(=O)NC(C)(C)C)[C@H](C)NC(=O)[C@H](CCCCN)NC1=O", "pKi": 4.78}

Task: What does the record list as pKi for CC(C)C[C@H](/N=C1\N[C@@H](C)[C@@H](C(=O)NC(C)(C)C)N2CCC[C@H]12)C(=O)N[C@@H](CCCCN)C(=O)NCC(=O)O ?
Result: 4.91
